Biological target: adenosine 1 (Homo sapiens)
Sequence (P30542 whole entry): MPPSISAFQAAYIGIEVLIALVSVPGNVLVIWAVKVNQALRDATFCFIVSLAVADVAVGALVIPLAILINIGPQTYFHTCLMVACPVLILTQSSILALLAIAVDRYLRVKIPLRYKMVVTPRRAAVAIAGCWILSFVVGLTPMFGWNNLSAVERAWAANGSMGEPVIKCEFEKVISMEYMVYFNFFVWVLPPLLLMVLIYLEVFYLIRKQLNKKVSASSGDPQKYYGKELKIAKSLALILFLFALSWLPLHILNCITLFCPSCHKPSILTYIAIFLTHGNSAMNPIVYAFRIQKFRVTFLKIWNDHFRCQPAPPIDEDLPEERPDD
Test: Agonist activity against adenosine receptor subtypes, CHO cells with cAMP response element/SPAP reporter (forskolin-enhanced cAMP)
Type: cell-based
Settings: ratio to EC50 of NECA; transfected CHO cells; effect on forskolin-enhanced cAMP via SPAP
As shown below, each of these molecules has a reported A1 (EC50 values as a ratio of that of NECA) value.
Measure name: A1 (EC50 values as a ratio of that of NECA)

molecule=Cc1nnc([C@H]2O[C@@H](n3cnc4c(NCC(c5ccccc5)c5ccccc5)nc(NCCc5cn(C)cn5)nc43)[C@H](O)[C@@H]2O)[nH]1.O=CO assay_value=>9058
molecule=CCc1nnc([C@H]2O[C@@H](n3cnc4c(NCC(c5ccccc5)c5ccccc5)nc(N[C@@H]5CCNC5)nc43)[C@H](O)[C@@H]2O)[nH]1.O=CO assay_value=>6032
molecule=CCc1nc([C@H]2O[C@@H](n3cnc4c(NCC(c5ccccc5)c5ccccc5)nc(NCCNC(=N)N)nc43)[C@H](O)[C@@H]2O)no1.O=CO.O=CO assay_value=>2147
molecule=CCc1nnc([C@H]2O[C@@H](n3cnc4c(NCC(c5ccccc5)c5ccccc5)nc(NCCN5CCOCC5)nc43)[C@H](O)[C@@H]2O)[nH]1.O=CO assay_value=>10735
molecule="CCn1cnc(C2OC(n3cnc4c(NCC(c5ccccc5)c5ccccc5)nc(NC5CCC(N)CC5)nc43)C(O)C2O)n1.O=CO.O=CO (stereo not drawn)" assay_value=2948.1
molecule=CCn1cnc([C@H]2O[C@@H](n3cnc4c(NCC(c5ccccc5)c5ccccc5)nc(NCCc5ccccn5)nc43)[C@H](O)[C@@H]2O)n1.O=CO.O=CO assay_value=4999.7

====

As shown below, each of these compounds has a reported A3 (EC50 values as a ratio of that of NECA) value.
Molecular target: adenosine 3 (Homo sapiens)
Sequence (P0DMS8 1-318): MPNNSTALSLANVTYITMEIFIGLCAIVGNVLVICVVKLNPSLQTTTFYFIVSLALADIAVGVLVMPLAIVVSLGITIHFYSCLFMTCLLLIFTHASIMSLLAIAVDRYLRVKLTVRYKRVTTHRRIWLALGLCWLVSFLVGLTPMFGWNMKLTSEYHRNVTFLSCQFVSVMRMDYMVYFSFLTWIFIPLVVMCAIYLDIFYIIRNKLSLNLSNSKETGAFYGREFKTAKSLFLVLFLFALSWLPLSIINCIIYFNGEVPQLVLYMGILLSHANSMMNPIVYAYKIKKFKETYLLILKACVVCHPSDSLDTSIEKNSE
Assay: Agonist activity against adenosine receptor subtypes, CHO cells with cAMP response element/SPAP reporter (forskolin-enhanced cAMP)
Assay type: cell-based
Settings: ratio to EC50 of NECA; transfected CHO cells; effect on forskolin-enhanced cAMP via SPAP
Measure name: A3 (EC50 values as a ratio of that of NECA)

compound="CC(C)c1nnc([C@H]2O[C@@H](n3cnc4c(NCC(c5ccccc5)c5ccccc5)nc(N[C@H]5CC[C@H](N)CC5)nc43)[C@H](O)[C@@H]2O)[nH]1.O=CO [Example 10]" assay_value=>326
compound="CCn1cnc([C@H]2O[C@@H](n3cnc4c(NCC(c5ccccc5)c5ccccc5)nc(NCCN5CCCCC5)nc43)[C@H](O)[C@@H]2O)n1.O=CO.O=CO [Example 32]" assay_value=>206
compound="CCc1nc([C@H]2O[C@@H](n3cnc4c(NCC(c5ccccc5)c5ccccc5)nc(NCCc5cn(C)cn5)nc43)[C@H](O)[C@@H]2O)no1.O=CO [Example 13]" assay_value=>194
compound="CCc1cc([C@H]2O[C@@H](n3cnc4c(NC(CC)CC)nc(NCCN5CCCCC5)nc43)[C@H](O)[C@@H]2O)no1.O=CO.O=CO [Example 43]" assay_value=>1124
compound="CCc1nnc([C@H]2O[C@@H](n3cnc4c(NCC(c5ccccc5)c5ccccc5)nc(NCCc5ccccn5)nc43)[C@H](O)[C@@H]2O)[nH]1.O=CO [Example 27]" assay_value=>183
compound="CCc1nnc([C@H]2O[C@@H](n3cnc4c(NCC(c5ccccc5)c5ccccc5)nc(NCCN5CCOCC5)nc43)[C@H](O)[C@@H]2O)[nH]1.O=CO [Example 8]" assay_value=>183
